Biological target: T1, PUF4 RNA-binding domain (Saccharomyces cerevisiae, UniProt P25339 537-888)
T1 sequence: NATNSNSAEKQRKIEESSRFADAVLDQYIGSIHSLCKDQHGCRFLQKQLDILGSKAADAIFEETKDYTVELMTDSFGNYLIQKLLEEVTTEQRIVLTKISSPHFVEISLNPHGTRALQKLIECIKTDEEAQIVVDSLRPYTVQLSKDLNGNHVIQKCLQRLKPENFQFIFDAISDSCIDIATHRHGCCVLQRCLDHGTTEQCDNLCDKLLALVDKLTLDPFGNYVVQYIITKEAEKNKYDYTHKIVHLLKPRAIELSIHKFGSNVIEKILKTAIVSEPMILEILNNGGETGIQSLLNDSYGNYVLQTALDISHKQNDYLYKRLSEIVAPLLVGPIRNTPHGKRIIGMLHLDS
Experiment: Mg; RNA-MaP; 20 mM Na-HEPES pH 7.4, 30 mM KOAc, 0.75 mM MgCl2, 0.1% Tween-20, 5% glycerol, 0.1 mg/mL BSA, 2 mM DTT; 25 C; 0.0125-409.6 nM protein
Details: tags: N-His6-TEV cleaved; C-SNAP kept, Cy3B-labelled; label: tethered on chip by stalled RNA polymerase
Entries annotated with measured Kd

BINDER	Kd (nM)
Ic_S4_P3E.1_K3.1_C3.1_H3.1_A3.1_[A6C]_F3.1_[T7A]_[A8C]_T3.1 (ssRNA) RNA: UUUGACAACUGAUCGUUCUUUCUUGUAUCACUUCUUUCUCGAUCAGUUGUCUUU	80.4
Ic_S2_P4E.1_K4.1_C4.1_H4.1_A4.1_[A6T]_[T7G]_F4.1_[T8C]_T4.1 (ssRNA) RNA: UUUGAUUAAUAUGAUAUCGUUCUUUCUUGUAUUGCAUUCUUUCUCGAUAUCAUAUUAAUCUUU	742
Id_ii_S2_P4E.3_K4.2_C4.2_[C-2A]_[T-1C]_H4.2_A4.1_F4.1_T4.2_[G10A]_[T11C] (ssRNA) RNA: UUUGAUUAAUAUGAUAUCGUUCUUUCUACUAUAUAUUAACUUCUUUCUCGAUAUCAUAUUAAUCUUU	13.3
Id_ii_S2_P3E.4_K3.3_C3.2_[C-2T]_H3.3_A3.1_F3.1_T3.2_[T9C]_[A10T] (ssRNA) RNA: UUUGAUUAAUAUGAUAUCGUUCUUUCUUUACACUAUACUUUCUUUCUCGAUAUCAUAUUAAUCUUU	670
UCUCUUACUAUAUAUUAACUCUCUU (ssRNA) [Id_ii_S1_P4E.3_K4.2_C4.2_[C-2A]_[T-1C]_H4.2_A4.1_F4.1_T4.2_[G10A]_[T11C]]	33
